target under test: UniProtKB Q96EB6
Sequence (Q96EB6 whole entry): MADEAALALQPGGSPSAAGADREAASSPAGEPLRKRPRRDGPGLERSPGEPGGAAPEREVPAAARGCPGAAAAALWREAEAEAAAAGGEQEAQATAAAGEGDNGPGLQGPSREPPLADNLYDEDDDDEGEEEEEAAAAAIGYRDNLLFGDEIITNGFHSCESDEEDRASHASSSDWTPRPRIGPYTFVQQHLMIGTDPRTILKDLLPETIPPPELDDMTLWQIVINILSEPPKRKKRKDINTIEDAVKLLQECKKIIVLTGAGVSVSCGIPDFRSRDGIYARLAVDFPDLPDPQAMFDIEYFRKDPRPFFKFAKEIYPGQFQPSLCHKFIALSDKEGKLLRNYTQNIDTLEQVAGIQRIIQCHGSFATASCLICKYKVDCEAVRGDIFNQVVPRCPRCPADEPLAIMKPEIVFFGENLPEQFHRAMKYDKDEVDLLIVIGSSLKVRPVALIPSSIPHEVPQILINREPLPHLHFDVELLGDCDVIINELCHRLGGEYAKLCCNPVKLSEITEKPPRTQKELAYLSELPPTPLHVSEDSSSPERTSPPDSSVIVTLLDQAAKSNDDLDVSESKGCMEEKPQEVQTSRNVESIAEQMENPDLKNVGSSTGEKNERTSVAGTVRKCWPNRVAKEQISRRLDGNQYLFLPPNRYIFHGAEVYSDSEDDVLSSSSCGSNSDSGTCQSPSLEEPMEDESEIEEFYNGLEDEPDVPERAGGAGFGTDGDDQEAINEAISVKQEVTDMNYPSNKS
procedure text: Mass spectrometry based SIRT1 deacetylase activation assay
Type: biochemical
condition details: 0.5 μM peptide substrate, 120 μM βNAD+, 10 nM SIRT1, 25 min, 25° C.
readout label: EC1.5 μM

Field: example entries. Status: answers known.
record smiles: O=C(Nc1cccc2c(=O)cc(-c3cccc(F)c3Cl)oc12)c1cnccn1
target under test: UniProtKB Q96EB6
EC1.5 μM: B (EC1.5 1-25 μM)
//
record smiles: O=C(Nc1cccc2c(=O)cc(-c3ccccc3Cl)oc12)c1cccc(N2CCOCC2)c1
target under test: UniProtKB Q96EB6
EC1.5 μM: B (EC1.5 1-25 μM)
//
record smiles: Cn1nccc1C(=O)Nc1cccc2c(=O)cc(-c3ccccc3C(F)(F)F)oc12
target under test: UniProtKB Q96EB6
EC1.5 μM: A (EC1-5<1.0)
//
record smiles: Cc1cnc(NC(=O)c2cccc3c(=O)cc(-c4ccccn4)oc23)s1
target under test: UniProtKB Q96EB6
EC1.5 μM: C (EC1.5>25 μM)
//
record smiles: Cc1ncoc1C(=O)Nc1cccc2c(=O)cc(-c3ccccc3C(F)(F)F)oc12
target under test: UniProtKB Q96EB6
EC1.5 μM: A (EC1-5<1.0)

Hi! What's the reported EC1.5 μM for `O=C(Nc1nccs1)c1cccc2c(=O)cc(-c3cccc(OC(F)(F)F)c3)oc12` on UniProtKB Q96EB6?
C (EC1.5>25 μM)

Recall the recorded EC1.5 μM for `Cn1cncc1C(=O)Nc1cccc2c(=O)cc(-c3ccccc3C(F)(F)F)oc12` with UniProtKB Q96EB6 and state it.
B (EC1.5 1-25 μM)

Provide the documented EC1.5 μM with UniProtKB Q96EB6 as the system for `O=C(Nc1cccc2c(=O)cc(-c3ccccc3Cl)oc12)c1cccc(N2CCCC2)c1`
A (EC1-5<1.0)

UniProtKB Q96EB6 / EC1.5 μM / `O=C(Nc1cccc2c(=O)cc(-c3cccc(C(F)(F)F)c3)oc12)c1ccc(OC[C@@H](O)CO)nc1` : value?
C (EC1.5>25 μM)

Requested read-out EC1.5 μM, target or system UniProtKB Q96EB6, entry `CS(=O)(=O)c1ccccc1-c1cc(=O)c2cccc(NC(=O)c3ccccn3)c2o1`
B (EC1.5 1-25 μM)

# query: EC1.5 μM | item `O=C(Nc1cccc2c(=O)cc(-c3ccccc3C(F)(F)F)oc12)c1cncnc1` | system: UniProtKB Q96EB6
C (EC1.5>25 μM)

Which measured EC1.5 μM belongs to `CC(C)c1ccccc1-c1cc(=O)c2cccc(NC(=O)c3cscn3)c2o1` , tested on UniProtKB Q96EB6?
B (EC1.5 1-25 μM)

What value of EC1.5 μM on UniProtKB Q96EB6 does `O=C(Nc1cccc2c(=O)cc(-c3ccccc3C(F)(F)F)oc12)c1ccccn1` have?
A (EC1-5<1.0)

// fetch UniProtKB Q96EB6 EC1.5 μM for `Cc1cnc(NC(=O)c2cccc3c(=O)cc(-c4cccc(F)c4F)oc23)s1`
C (EC1.5>25 μM)

API: value(readout=EC1.5 μM, system=UniProtKB Q96EB6) for record `O=C(Nc1cccc2c(=O)cc(-c3ccccc3C(F)(F)F)oc12)c1cocn1`
B (EC1.5 1-25 μM)

Short answer please: EC1.5 μM, UniProtKB Q96EB6, entry `O=C(Nc1cccc2c(=O)cc(-c3ccccc3C(F)(F)F)oc12)c1cccc(N2CCCC2)c1`
B (EC1.5 1-25 μM)

Please tell me: EC1.5 μM of `Cc1cnc(NC(=O)c2cccc3c(=O)cc(-c4ccccc4OC(F)F)oc23)s1` , system UniProtKB Q96EB6?
B (EC1.5 1-25 μM)

# credit: patent US8987258B2
